assay: Cmax in Wistar rat 10 mg/kg, po; format: ADME, organism-based; design: dose 10 mg/kg, route oral; settings: in vivo
I'd be grateful if you could share measured Cmax for these entries.
Numbers only here, please. The scale is ng/mL.

Sample CC(C)c1cc(-c2ccc(F)c3ccccc23)nc(N)n1 — what was its Cmax? 470

Proceed to N#Cc1cc(CN2CCC(Nc3ncnc4sc(Cl)cc34)CC2)ccc1F [PRX-08066 FREE BASE] 240

###

assay: AUC in Sprague-Dawley rat at 10 mg/kg, po; type: ADME, organism-based; design: dose 10 mg/kg, route oral; conditions: plasma
MEASURED ATTRIBUTE: AUC (ng·h/mL)
Numbers only here, please. The scale is ng·h/mL.

Sample O=C(c1ccc(-c2ccc(F)cc2)cc1)N1CCC(c2ncc[nH]2)CC1 — what was its AUC? 14000

Proceed to O=S(=O)(c1ccc(-c2ccc(F)cc2)cc1)N1CCC(c2ncc[nH]2)CC1 2300

Proceed to O=C(c1ccc(-c2ccccc2)cc1)N1CCC(c2nc3ccccc3[nH]2)CC1 25000

Proceed to O=C(c1ccc(-c2ccc(F)cc2)cc1)N1CCC(Cc2ncc[nH]2)CC1 6500
